Biological target: T1, human integrin avb8 (human)
T1 chain 1: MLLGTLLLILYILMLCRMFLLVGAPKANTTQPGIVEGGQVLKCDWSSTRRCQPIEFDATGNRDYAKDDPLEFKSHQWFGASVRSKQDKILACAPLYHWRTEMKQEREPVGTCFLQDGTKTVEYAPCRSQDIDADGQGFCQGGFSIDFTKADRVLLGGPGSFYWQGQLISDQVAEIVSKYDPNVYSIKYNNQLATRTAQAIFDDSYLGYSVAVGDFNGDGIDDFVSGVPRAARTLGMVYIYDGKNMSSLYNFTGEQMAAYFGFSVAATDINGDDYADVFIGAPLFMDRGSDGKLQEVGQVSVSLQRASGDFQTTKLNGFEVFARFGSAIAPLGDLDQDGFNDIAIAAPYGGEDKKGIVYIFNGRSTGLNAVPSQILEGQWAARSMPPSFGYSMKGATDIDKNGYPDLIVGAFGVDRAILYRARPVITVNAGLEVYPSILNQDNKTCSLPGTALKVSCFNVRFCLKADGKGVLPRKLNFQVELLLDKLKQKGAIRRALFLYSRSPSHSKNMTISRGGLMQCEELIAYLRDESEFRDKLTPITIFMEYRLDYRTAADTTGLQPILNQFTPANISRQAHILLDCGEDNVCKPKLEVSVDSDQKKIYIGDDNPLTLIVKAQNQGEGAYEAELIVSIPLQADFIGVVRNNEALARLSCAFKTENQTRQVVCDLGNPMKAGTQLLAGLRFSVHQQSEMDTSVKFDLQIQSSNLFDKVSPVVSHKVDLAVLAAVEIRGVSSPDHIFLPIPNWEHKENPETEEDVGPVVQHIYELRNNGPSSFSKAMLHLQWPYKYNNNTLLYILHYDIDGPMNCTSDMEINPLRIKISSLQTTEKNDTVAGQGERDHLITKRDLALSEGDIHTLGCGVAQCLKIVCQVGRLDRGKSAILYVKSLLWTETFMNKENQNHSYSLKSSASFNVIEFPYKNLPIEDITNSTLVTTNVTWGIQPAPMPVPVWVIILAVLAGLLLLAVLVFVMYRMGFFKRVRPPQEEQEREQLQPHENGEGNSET
T1 chain 2: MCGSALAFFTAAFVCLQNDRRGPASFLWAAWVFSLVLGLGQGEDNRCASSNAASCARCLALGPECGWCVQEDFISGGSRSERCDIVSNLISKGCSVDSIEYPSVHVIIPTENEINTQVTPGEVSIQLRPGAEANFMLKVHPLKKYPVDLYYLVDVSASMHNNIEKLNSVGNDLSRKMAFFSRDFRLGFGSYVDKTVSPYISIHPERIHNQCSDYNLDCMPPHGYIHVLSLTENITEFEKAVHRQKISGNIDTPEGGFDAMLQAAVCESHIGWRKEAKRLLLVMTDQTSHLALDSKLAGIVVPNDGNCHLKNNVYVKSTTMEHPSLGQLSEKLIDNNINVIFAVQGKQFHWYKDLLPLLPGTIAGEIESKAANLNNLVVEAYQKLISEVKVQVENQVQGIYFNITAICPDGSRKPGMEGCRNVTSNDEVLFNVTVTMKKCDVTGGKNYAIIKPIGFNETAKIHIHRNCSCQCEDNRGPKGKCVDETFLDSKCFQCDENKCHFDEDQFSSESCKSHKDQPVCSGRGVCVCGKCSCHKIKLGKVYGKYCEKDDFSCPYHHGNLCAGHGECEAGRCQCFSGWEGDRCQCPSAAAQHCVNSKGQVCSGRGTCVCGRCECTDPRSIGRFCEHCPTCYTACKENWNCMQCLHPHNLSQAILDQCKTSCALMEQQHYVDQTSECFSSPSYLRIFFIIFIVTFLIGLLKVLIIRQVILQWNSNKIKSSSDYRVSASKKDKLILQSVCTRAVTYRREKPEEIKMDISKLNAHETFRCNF
Test: SPR
Kd listing for selected binders.
Your answer should be a plain number; it is taken to be in nM.

Below: 2 binders and their reported Kd.
| binder | measurement_label | result_value |
| --- | --- | --- |
| ADWA11 VH01/VK01 Fab (antibody, V domains shown) VH: EVQLVESGGGLVQPGGSLRLSCAASGFNIKDYYMNWVRQAPGKGLEWVAWIDPDNGNTIYDPKFQGRFTISRDNAKNSLYLQMNSLRAEDTAVYYCARRLLMDYWGQGTLVTVSS VL: DIQMTQSPSSLSASVGDRVTITCRSTKSLLHFNGNTYLFWYQQKPGKAPKRLIYYMSNLASGVPSRFSGSGSGTDFTLTISSLQPEDFATYYCMQSLEYPFTFGQGTKVEIK | Kd | 6.86 |
| ADWA11 VH02/VK01 Fab (antibody, V domains shown) VH: EVQLVESGGGLVQPGGSLRLSCAASGFNIKDYYMNWVRQAPGKGLEWVAWIDPDNGNTIYDPKFQGRFTISADNAKNSLYLQMNSLRAEDTAVYYCARRLLMDYWGQGTLVTVSS VL: DIQMTQSPSSLSASVGDRVTITCRSTKSLLHFNGNTYLFWYQQKPGKAPKRLIYYMSNLASGVPSRFSGSGSGTDFTLTISSLQPEDFATYYCMQSLEYPFTFGQGTKVEIK | Kd | 1.89 |

Now consider a different binder.
Problem: What does the record list as Kd for ADWA11 VH03/VK02 Fab (antibody, V domains shown) VH: EVQLVESGGGLVQPGGSLRLSCAASGFNIKDYYMNWVRQAPGKGLEWVGWIDPDNGNTIYDPKFQGRFTISADNAKNSAYLQMNSLRAEDTAVYYCARRLLMDYWGQGTLVTVSS VL: DIQMTQSPSSLSASVGDRVTITCRSTKSLLHFNGNTYLFWFQQKPGKAPKRLIYYMSNLASGVPSRFSGSGSGTDFTLTISSLQPEDFATYYCMQSLEYPFTFGQGTKVEIK ?
Solution: 0.37

Data provenance is patent US20220289850.
